Literature pIC50 values, system: Serine/threonine-protein kinase ATR (Homo sapiens, UniProt Q13535).
Scale for pIC50: -log10 of concentration given in mol/L; no unit attached.

molecule: CCn1nc(-c2cc[nH]n2)c2nc(N3CCOC[C@H]3C)cc(C3(C#N)CC3)c21
pIC50: 8.10

Look up pIC50 with Serine/threonine-protein kinase ATR (Homo sapiens, UniProt Q13535) for this molecule: "Cc1ccc(S(=O)(=O)N(C)C)cc1-c1cc(N2CCOC[C@H]2C)nc(-c2ccnc3[nH]ccc23)n1"
7.60

Look up pIC50 with Serine/threonine-protein kinase ATR (Homo sapiens, UniProt Q13535) for this molecule: Cc1nn(C2CCNCC2(F)F)c(C)c1-c1cc(N2CCOC[C@H]2C)nc(-c2ccnc3[nH]ccc23)n1 (stereo partly shown)
7.80

Look up pIC50 with Serine/threonine-protein kinase ATR (Homo sapiens, UniProt Q13535) for this molecule: "CNc1nc2cc(F)ccc2n1-c1nc(-c2c(C(F)(F)F)nn(CS(C)(=O)=O)c2C)cc(N2CCOC[C@H]2C)n1"
7.01

Look up pIC50 with Serine/threonine-protein kinase ATR (Homo sapiens, UniProt Q13535) for this molecule: "Cc1cnn(C)c1-c1cc(N2CCOC[C@H]2C)nc(-c2cc(F)cc3[nH]ccc23)n1"
7.57

Look up pIC50 with Serine/threonine-protein kinase ATR (Homo sapiens, UniProt Q13535) for this molecule: "Cc1ccc(S(=O)(=O)NCCCO)cc1-c1cc(N2CCOC[C@H]2C)nc(-c2ccnc3[nH]ccc23)n1"
7.30
